- Tested on: HCC-2998 colon
- Test Summary: NCI tumour cell line growth inhibition, 48 h
Please provide measured GI50 for the entries that follow.

Return GI50 measured with HCC-2998 colon given this compound: O=C1c2ccn(CCCCN(CCO)CCO)c2C(=O)c2c1c(O)c1ccccc1c2O 3.55 µM

Return GI50 measured with HCC-2998 colon given this compound: NS(=O)(=O)c1ccc(N2N=C(c3cccs3)CC2c2ccccc2O)cc1 (centres undefined) 1.33 µM

Return GI50 measured with HCC-2998 colon given this compound: O=C(NN1C(=O)CSC12CCC(c1ccccc1)CC2)c1[nH]c2ccc(F)cc2c1-c1ccccc1 (centres undefined) 14.9 µM

Return GI50 measured with HCC-2998 colon given this compound: O=C(Cn1c2ccccc2c2ccncc21)N/N=C\c1ccc2ccccc2c1 35.9 µM
